Catalogue of inhibition readings, one per entry.
# ASSAY_NAME: inhibitors of E-selectin induction by TNFa, primary screen, imaging, HUVEC, immunofluorescence, MLSMR starter and 10KST1 sets (AID 487);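 further: signal is fraction of cell area covered by stained E-selectin grains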
# PARTICULARS: HUVEC TNFalpha-induced E-selectin immunofluorescence imaging, at 2 µM; stronger effect = higher value
Record the value in %, omitting the unit from your answer.

In: I'd like to know its inhibition. The compound in question is COc1ccccc1C(=O)N1CCCC1(C#N)c1ccccc1 (stereo unspecified)
Out: -44.9

---

# ASSAY_NAME: inhibitors of Sendai virus-induced IRF3 signaling, primary screen, TLR/RLR signaling modifier project, cell-based, Sendai virus stimulus, luciferase, 10K MLSCN set (AID 602276);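 further: firefly luciferase from ISG56 promoter only with Renilla not read in this screen; 0% = Sendai virus plus DMSO and 100% = medium plus DMSO without virus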
# PARTICULARS: HEK293 RL24 IRF3 luciferase reporter, at 10 µM, stronger effect = higher value
RECORDED_METRIC: inhibition (%)
Record the value in %, omitting the unit from your answer.

# count of solved cases: 10
{"columns": ["MOLECULE", "inhibition [%]"],
 "data": [
  ["CCN(CC)CCCN1C(=O)C(=O)/C(=C(/O)c2ccc(C)cc2)C1c1ccccn1 (stereo not drawn)", -25.3],
  ["CC1(C)O[C@@H]2C[C@H]3[C@@H]4C[C@H](F)C5=CC(=O)CC[C@]5(C)[C@H]4[C@@H](O)C[C@]3(C)[C@]2(C(=O)CO)O1", -7.22],
  ["CCN(CC)CCCC1(CN)OCCc2ccccc21 (stereo not drawn)", 5.61],
  ["NC(=O)c1cc(-c2ccccc2)nc(Oc2ccccc2)n1", 13.4],
  ["Cc1c(C2Nc3ccccc3NC3=C2C(=O)CC(C)(C)C3)cnn1C (stereo not drawn)", 35.1],
  ["CN1C(=O)c2c(sc3c2CCCC3)NC1c1ccccc1O (stereo not drawn)", -8.68],
  ["Clc1ccc(-n2ncc3c(NCCCn4ccnc4)ncnc32)cc1", -0.733],
  ["CCCn1c(=O)[nH]c(=O)c2[nH]cnc21", 18.8],
  ["COC(=O)CN(c1nc(C)c(Cl)c(OC)n1)S(=O)(=O)c1ccc(C)cc1", 13.8],
  ["O=C1C(CCS(=O)c2ccccc2)C(=O)N(c2ccccc2)N1c1ccccc1 (stereo not drawn)", 7.23]
]}

Now look at this one.
In: I'd like to know its inhibition. The molecule in question is Cc1cn([C@H]2C[C@H](N=[N+]=[N-])[C@@H](CO)O2)c(=O)[nH]c1=O
Out: 17.8

---

# ASSAY_NAME: inhibitors of mutant huntingtin aggregation, primary screen, imaging, exon1htt(103Q)mCFP cells, high-content imaging (AID 483);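 further: compound exposure lasted 3 days before fixation; percent of the per-plate median nuclei count of sample wells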
# PARTICULARS: exon1htt(103Q)mCFP cell line, aggregate imaging, at 2 µM; measured here: cell count, toxicity
Catalogue of nuclei count readings, one per entry.
Record the value in %, omitting the unit from your answer.

# count of solved cases: 5
{"columns": ["COMPOUND", "UNIT_LABEL", "nuclei count"],
 "data": [
  ["O=C(O)c1cc(=O)cc(C(=O)O)[nH]1", "%", 98],
  ["Cc1ccc2nc(C(F)(F)F)c(C#N)c(N)c2c1", "%", 77.3],
  ["CC(=N\\O)/C(CN(C)C)=N/O", "%", 86.5],
  ["Oc1c(Cl)cc(Cl)cc1CNc1ccc(Br)cn1", "%", 108],
  ["CC(=O)OCC(=O)[C@@]12OC(C)(C)O[C@@H]1C[C@H]1[C@@H]3C[C@H](F)C4=CC(=O)C=C[C@]4(C)[C@@]3(F)[C@@H](O)C[C@@]12C", "%", 53.2]
]}

In: I'd like to know its nuclei count. The compound in question is O=C(O)c1ccccc1Nc1cccc(C(F)(F)F)c1
Out: 99.3

In: I'd like to know its nuclei count. The compound in question is COCCCN1C(=O)C(O)=C(C(=O)c2ccco2)C1c1ccc(Br)cc1 (stereo not given)
Out: 107

In: I'd like to know its nuclei count. The compound in question is CC1(C)Cc2c(C#N)c(SCCC#N)nc(N3CCOCC3)c2CS1
Out: 106

In: I'd like to know its nuclei count. The compound in question is C[C@@H]1C[C@H]2[C@@H]3CCC4=CC(=O)C=C[C@]4(C)[C@@]3(F)[C@@H](O)C[C@]2(C)[C@H]1C(=O)CO
Out: 59.5

In: I'd like to know its nuclei count. The compound in question is Cc1cc(C)c2c(N)c(C(=O)c3ccccc3)oc2n1
Out: 96.6

---

# ASSAY_NAME: inhibitors of TNFa-induced NFkB p65 translocation, primary screen, imaging, HUVEC, MLSMR starter and 10KST1 sets (AID 438);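 further: compound added about 3h40 before a 20 min TNFalpha stimulation; signal is the nuclear over cytoplasmic p65 intensity ratio per well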
# PARTICULARS: HUVEC TNFa-induced p65 nuclear translocation; at 2 µM, stronger effect = higher value, 0% TNFa-plus-vehicle, 100% no-TNFa wells
Catalogue of inhibition readings, one per entry.
Record the value in %, omitting the unit from your answer.

# count of solved cases: 3
{"columns": ["COMPOUND", "inhibition [%]"],
 "data": [
  ["CCC1(C)Cc2c(sc3nc4n(c(=O)c23)CCS4)CO1 (stereo unspecified)", -14.8],
  ["CC1CNCCN1S(=O)(=O)c1cccc2cnccc12 (stereo unspecified)", -8.2],
  ["O=C(NC1CCCCC1)Nn1c(-c2ccccc2)nc2ccccc2c1=O", -7.6]
]}

In: I'd like to know its inhibition. The compound in question is CCCc1cc(C(=O)Cc2ccc(F)cc2)c(O)cc1O
Out: -8.9

In: I'd like to know its inhibition. The compound in question is CCNC(=O)N(C)c1nncnc1C(=O)NC
Out: -12.6

In: I'd like to know its inhibition. The compound in question is Cn1c(=O)c2c3c(sc2n2c(SCc4ccccc4)nnc12)CCCC3
Out: -5.3

In: I'd like to know its inhibition. The compound in question is CCOC(=O)CC(=O)CSc1[nH]c(=O)cc(C)c1C#N
Out: -6

In: I'd like to know its inhibition. The compound in question is Cn1c(=O)c2c(nc(SCCN3CCCCC3)n2Cc2ccc(Cl)cc2)n(C)c1=O
Out: -3.7

In: I'd like to know its inhibition. The compound in question is C[C@]12CCC(=O)C=C1CC[C@@H]1[C@@H]2C(=O)C[C@@]2(C)[C@H]1CC[C@]2(O)C(=O)CO
Out: -6

In: I'd like to know its inhibition. The compound in question is c1csc(-c2nn3c(C4CCCCC4)nnc3s2)c1
Out: -8.5

In: I'd like to know its inhibition. The compound in question is Cc1[nH]nc2cn[nH]c12
Out: -7.3

---

# ASSAY_NAME: inhibitors of E-selectin induction by TNFa, primary screen, imaging, HUVEC, immunofluorescence, MLSMR starter and 10KST1 sets (AID 487);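 further: signal is fraction of cell area covered by stained E-selectin grains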
# PARTICULARS: HUVEC TNFalpha-induced E-selectin immunofluorescence imaging, at 2 µM; stronger effect = higher value
RECORDED_METRIC: inhibition (%)
Record the value in %, omitting the unit from your answer.

# count of solved cases: 5
{"columns": ["MOLECULE", "MEASURED_NUMBER"],
 "data": [
  ["Cc1ccc(C(C)C)c(OCCNc2nc3c(c(=O)n(C)c(=O)n3C)n2C)c1", -61.7],
  ["[N-]=[N+]=CC(=O)c1ccnc(C(=O)C=[N+]=[N-])c1", -164],
  ["CC(C)Cc1nc2n[nH]c(N)c2c2c1CCC2", -87.6],
  ["CN(Cc1c(O)ccc2c1oc(=O)c1ccccc12)C1CCCCC1", 6.7],
  ["COC(=O)c1sc(NC(=O)C(C)C)c(C(=O)OC)c1C", 29.8]
]}

In: I'd like to know its inhibition. The molecule in question is Cc1cccc(N(Cc2cc3ccccc3[nH]c2=O)C(=O)c2ccco2)c1C
Out: -117

In: I'd like to know its inhibition. The molecule in question is COc1ccc(Nc2cc(C)nc3ccccc23)cc1
Out: 36

In: I'd like to know its inhibition. The molecule in question is CC(O)c1n(C)c(Cl)c[n+]1C (stereo unspecified)
Out: -67.2

In: I'd like to know its inhibition. The molecule in question is Cc1ccc(C)c(OCCCC(C)(C)C(=O)O)c1
Out: -52.3

In: I'd like to know its inhibition. The molecule in question is CCCOc1ccc(/C(O)=C2/C(=O)C(=O)N(CCCn3ccnc3)C2c2cccs2)cc1 (stereo unspecified)
Out: -124

---

# ASSAY_NAME: inhibitors of mutant huntingtin aggregation, primary screen, imaging, exon1htt(103Q)mCFP cells, high-content imaging (AID 483);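 further: compound exposure lasted 3 days before fixation; percent of the per-plate median nuclei count of sample wells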
# PARTICULARS: exon1htt(103Q)mCFP cell line, aggregate imaging, at 2 µM; measured here: cell count, toxicity
RECORDED_METRIC: nuclei count (%)
Record the value in %, omitting the unit from your answer.

In: I'd like to know its nuclei count. The molecule in question is C[C@@H]1C[C@H]2[C@@H]3CCC4=CC(=O)C=C[C@]4(C)[C@@]3(F)[C@@H](O)C[C@]2(C)[C@@]1(O)C(=O)COP(=O)(O)O
Out: 49.4
